Where do the numbers come from? From patent US20260209325A1.

assayed.target: T1, human pro-myostatin (human, UniProt O14793 24-375, biotinylated (in the SPR assay))
T1 construct: Disulfide-linked homodimer; also called proGDF8 (human)
assay.info: SPR Biacore 8K, biotin-antigen captured
assay.metric: pKd
Give bare numbers, as −log10 of the molar value.

Your task in this section: give pKd for each listed record.
1. Ab107 (antibody, human IgG4 S228P, kappa, V domains shown) VH: EVQLVESGGGLVQPGGSLRLSCAASGSAFSSYGMSWVRQAPGKGLELVASINSNGGSTYYPDSVKGRFTISRDNAKNSLYLQMNSLRAEDTAVYYCARDQLVRFLEWSHYYGMDVWGQGTTVTVSS VL: DIVMTQSPLSLPVTPGEPASISCRSSQSLLHSSGHNFLHWYLQKPGQSPQLLIYAGSNRPSGVPDRFSGSGSGTDFTLKISRVEAEDVGVYYCAHATQLPHTFGGGTKVEIKR
2. Ab102 (antibody, human IgG4 S228P, kappa, V domains shown) VH: EVQLVESGGGLVQPGGSLRLSCAASGFTFTSYGMSWVRQAPGKGLELVASITGSGGETYYPDSVKGRFTISRDNAKNSLYLQMNSLRAEDTAVYYCARDLLVRFLEWSHYYGMDVWGQGTTVTVSS VL: DIVMTQSPLSLPVTPGEPASISCRSSQSLLHSSGHNFLHWYLQKPGQSPQLLIYETSNRAPGIPDRFSGSGSGTDFTLKISRVEAEDVGVYYCMQATQFPRPFGGGTKVEIKR
3. Ab112 (antibody, human IgG4 S228P, kappa, V domains shown) VH: QVQLVQSGAEVKKPGASVKVSCKVSGGTFGIYAIHWVRQAPGKGLEWMGGTIPVFGTAIYAQKFQGRVTMTEDTSTDTAYMELSSLKSEDTAVYYCASLTGIAAAGTHPARGGMDVWGQGTTVTVSS VL: DIQMTQSPSSVSASVGDRVTITCRASPSISSYLAWYQQKPGKAPKLLIYAASRLQSGVPSRFSGSGSGTDFTLTISSLQPEDFANYYCQEYLSFPLTFGGGTKVEIKR
4. Ab123 (antibody, human IgG4 S228P, kappa, V domains shown) VH: EVQLVESGGGLVQPGGSLRLSCAASGFTFSKYDMSWVRQAPGKGLELVASISSSGGTRYYPDSVKGRFTISRDNAKNSLYLQMNSLRAEDTAVYYCAKDLWVASPGYGMDVWGQGTTVTVSS VL: DIVMTQSPLSLPVTPGEPASISCRSSQSLLHSSGHNYLHWYLQKPGQSPQLLIYLGSIRAPGVPDRFSGSGSGTDFTLKISRVEAEDVGVYYCMQALLNPPTFGGGTKVEIKR

-- reply
[10.22, 10.24, 9.25, 9.40]

-- ask Reported pKd for Ab141 (antibody, human IgG4 S228P, kappa, V domains shown) VH: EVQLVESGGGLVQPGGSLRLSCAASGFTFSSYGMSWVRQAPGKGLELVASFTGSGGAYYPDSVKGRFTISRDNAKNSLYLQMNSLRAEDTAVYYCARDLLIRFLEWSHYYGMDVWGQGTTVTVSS VL: DIVMTQSPLSLPVTPGEPASISCRSSQSLLHSSGHNFLHWYLQKPGQSPQLLIYEVSNRVSGVPDRFSGSGSGTDFTLKISRVEAEDVGVYYCMQQTQYPGTFGGGTKVEIKR : what is it?
-- reply 10.40
